B1: ZBED1 (parent)
chain: EQVFSLGDGVSGGFFGIRDSSFL

# Variants of: B1
# Test summary: protein stability index of a GFP-peptide fusion (GPS, HEK-293T) (PSI 1-6); higher = more stable;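 note: lentivirally expressed fusions sorted by FACS into six bins by GFP to DsRed ratio, PSI derived from sequencing read proportions per bin multiplied by bin number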
# Condition label: c terminus: native
Just so you know, the groups by protein stability index go like this: Low (below 3), Medium (3 to below 4), High (4 or more)

S21L Low
L23K High
S20N Medium
F14C High
V3E High
F4D High
S5G Medium
F4V Medium

## Input State the class of the variant shown: G9H
## Output Medium

## Input State the class of the variant shown: G12W
## Output Low

## Input State the class of the variant shown: E1C
## Output Low

## Input State the class of the variant shown: F22K
## Output Low

## Input State the class of the variant shown: S20M
## Output Low

## Input State the class of the variant shown: D8P
## Output Low

## Input State the class of the variant shown: D19A
## Output Low

## Input State the class of the variant shown: L23A
## Output Low

## Input State the class of the variant shown: L6G
## Output High

## Input State the class of the variant shown: G16M
## Output Low

## Input State the class of the variant shown: S5V
## Output Low

## Input State the class of the variant shown: F22S
## Output Medium

## Input State the class of the variant shown: S11F
## Output Low

Where these numbers come from: the supplement of paper PMC10567573
